B1: Hairpin Ribozyme (parent)
chain: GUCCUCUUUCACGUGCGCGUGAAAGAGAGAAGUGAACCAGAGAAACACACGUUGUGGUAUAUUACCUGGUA

Variants of: B1
METHOD: self-cleavage, relative activity (ratio to wild type); higher = more cleavage; co-transcriptional
Classify on self-cleavage using I (below 0.2), II (0.2 to below 0.5), III (0.5 or more)

Prompt line: Assign a bin to U14G A28C
Response line: III

Prompt line: Assign a bin to U7A C18U
Response line: III

Prompt line: Assign a bin to A41U A44G
Response line: I

Prompt line: Assign a bin to G15U U58G
Response line: III

Prompt line: Assign a bin to A24U U60G
Response line: III

Prompt line: Assign a bin to G17U C38U
Response line: III

Prompt line: Assign a bin to C46G U67C
Response line: I

Prompt line: Assign a bin to A45C U62C
Response line: I

Prompt line: Assign a bin to C16U U67C
Response line: II

Prompt line: Assign a bin to U5A C6A
Response line: II

Prompt line: Assign a bin to A31G G40A
Response line: I

Prompt line: Assign a bin to C16U G21A
Response line: III

Prompt line: Assign a bin to U9A U62C
Response line: II

Prompt line: Assign a bin to A41U G54U
Response line: III

Prompt line: Assign a bin to A23G A71U
Response line: III

Prompt line: Assign a bin to C18U G21A
Response line: III

Prompt line: Assign a bin to U9C G56A
Response line: I

Prompt line: Assign a bin to U9G C50U
Response line: II

Prompt line: Assign a bin to U7A U33C
Response line: I

Prompt line: Assign a bin to G57U U60C
Response line: II

Prompt line: Assign a bin to U53C C65G
Response line: II

Prompt line: Assign a bin to A36C U60C
Response line: III

Prompt line: Assign a bin to C46A G69A
Response line: I

Prompt line: Assign a bin to U55A C65U
Response line: II

Prompt line: Assign a bin to A45C A64C
Response line: I

Prompt line: Assign a bin to G32A U53A
Response line: I

Prompt line: Assign a bin to A24U U33A
Response line: I

Prompt line: Assign a bin to U5G A71C
Response line: III

Prompt line: Assign a bin to U55G C65G
Response line: II

Prompt line: Assign a bin to A24C U55G
Response line: II

Prompt line: Assign a bin to U8C U52G
Response line: III

Prompt line: Assign a bin to A26C G34A
Response line: III

Prompt line: Assign a bin to U9G G68U
Response line: I

Prompt line: Assign a bin to C10A G15C
Response line: III

Prompt line: Assign a bin to A26C C48G
Response line: I

Prompt line: Assign a bin to G1A U60C
Response line: II

Prompt line: Assign a bin to A30U G42A
Response line: I

Prompt line: Assign a bin to A28U G40C
Response line: I

Prompt line: Assign a bin to C18U A26G
Response line: III

Prompt line: Assign a bin to G21C A59C
Response line: II

Prompt line: Assign a bin to G13A A22G
Response line: III

Prompt line: Assign a bin to A59C U60G
Response line: II

Prompt line: Assign a bin to G34U A61G
Response line: III

Prompt line: Assign a bin to C10G C37U
Response line: II

Prompt line: Assign a bin to G32C U70A
Response line: I

Prompt line: Assign a bin to A11U U58A
Response line: III

Prompt line: Assign a bin to C16U C50G
Response line: II

Prompt line: Assign a bin to U14A C66G
Response line: I

Prompt line: Assign a bin to U7G U62A
Response line: I

Prompt line: Assign a bin to C46U
Response line: I

Prompt line: Assign a bin to A22C U60C
Response line: III

Prompt line: Assign a bin to A36G U62A
Response line: I

Prompt line: Assign a bin to G32C U55C
Response line: I

Prompt line: Assign a bin to C4A U62C
Response line: I

Prompt line: Assign a bin to C38G A45U
Response line: I

Prompt line: Assign a bin to U9A G34C
Response line: III

Prompt line: Assign a bin to U60A C66A
Response line: II

Prompt line: Assign a bin to G15C G29C
Response line: I

Prompt line: Assign a bin to A35G U63G
Response line: II

Prompt line: Assign a bin to A11U A36G
Response line: III

Prompt line: Assign a bin to U33C
Response line: I

Prompt line: Assign a bin to G17U A26G
Response line: III

Prompt line: Assign a bin to C18U G19A
Response line: III

Prompt line: Assign a bin to G19C G27C
Response line: I

Prompt line: Assign a bin to A39G A59C
Response line: I

Prompt line: Assign a bin to C16G A31U
Response line: II

Prompt line: Assign a bin to G40A C66A
Response line: II

Prompt line: Assign a bin to G21A G69A
Response line: II

Prompt line: Assign a bin to C4G G25C
Response line: I

Prompt line: Assign a bin to G21U A64G
Response line: III

Prompt line: Assign a bin to U14G C18U
Response line: III

Prompt line: Assign a bin to U33G U70C
Response line: I

Prompt line: Assign a bin to A23U A61U
Response line: I

Prompt line: Assign a bin to G29C A49U
Response line: I

Prompt line: Assign a bin to G15C G25A
Response line: III

Prompt line: Assign a bin to G17A C46A
Response line: I

Prompt line: Assign a bin to C18G A35U
Response line: III

Prompt line: Assign a bin to G1A C46U
Response line: II

Ref: the RNAGym collection of RNA variant scans (doi:10.7554/elife.80360)
